# Test system: 883617-216-R-J1-PDC tumor spheroids, viability
# Procedure Details: Anticancer human tumor 883617-216-R-J1-PDC patient-derived bladder carcinoma cell line growth inhibition [PI3K]; active means viability on the fitted dose curve at most 10% of control; inactive means the rest
# Condition Context: second compound 0.1 µM; first compound 0.00949 µM; spheroids with HUVEC and MSC
Select the matching outcome among active, inactive

# count of solved cases: 3
Compound	Target Of Assay	Cat
Cn1cnc2c(F)c(Nc3ccc(Br)cc3Cl)c(C(=O)NOCCO)cc21 + CC(Nc1ncnc2nc[nH]c12)c1cc2cccc(Cl)c2c(=O)n1-c1ccccc1	883617-216-R-J1-PDC tumor spheroids, viability	inactive
Cn1cnc2c(F)c(Nc3ccc(Br)cc3Cl)c(C(=O)NOCCO)cc21 + COc1c(OCCCN2CCOCC2)ccc2c3n(c(=NC(=O)c4cnc(N)nc4)nc12)CCN3	883617-216-R-J1-PDC tumor spheroids, viability	active
Cn1cnc2c(F)c(Nc3ccc(Br)cc3Cl)c(C(=O)NOCCO)cc21 + CC(Nc1ccc2c(c1)OCCn1cc(N3C(=O)OCC3C(F)F)nc1-2)C(N)=O	883617-216-R-J1-PDC tumor spheroids, viability	inactive

Shift focus to the following entry.
# input Hi, sorry to bother you, what did the test record for Cn1cnc2c(F)c(Nc3ccc(Br)cc3Cl)c(C(=O)NOCCO)cc21 + Cc1nc(NC(=O)N2CCCC2C(N)=O)sc1-c1ccnc(C(C)(C)C(F)(F)F)c1 ?
# output inactive

###

# Test system: 883617-216-R-J1-PDC tumor spheroids, viability
# Procedure Details: Anticancer human tumor 883617-216-R-J1-PDC cell line growth inhibition [PI3K];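 further: spheroids exposed to agents for 7 days before the viability read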
# Condition Context: second compound 0.0316 µM; first compound 0.00316 µM; stronger effect = lower value; spheroids with HUVEC and MSC
Experimental Readout: viability, T/C (%)
Report as a plain number; the unit % is understood.

Compound	viability, T/C [%]
Cn1ncnc1[C@H]1c2n[nH]c(=O)c3cc(F)cc(c23)N[C@@H]1c1ccc(F)cc1 + CC(Nc1ncnc2nc[nH]c12)c1cc2cccc(Cl)c2c(=O)n1-c1ccccc1	72.5
CC(=O)c1c(C)c2cnc(Nc3ccc(N4CCNCC4)cn3)nc2n(C2CCCC2)c1=O + CC(Nc1ncnc2nc[nH]c12)c1cc2cccc(Cl)c2c(=O)n1-c1ccccc1	87.7

# input For the compound shown here, CCN1CCN(Cc2ccc(Nc3ncc(F)c(-c4cc(F)c5nc(C)n(C(C)C)c5c4)n3)nc2)CC1 + COc1c(OCCCN2CCOCC2)ccc2c3n(c(=NC(=O)c4cnc(N)nc4)nc12)CCN3 , give the reported viability, T/C.
# output 36.3

###

# Tested on: 883617-216-R-J1-PDC tumor spheroids, viability
# Procedure Details: Anticancer human tumor 883617-216-R-J1-PDC cell line growth inhibition [PI3K]; active = viability on the fitted dose curve at most 10% of control; inactive = the rest;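 further: spheroids exposed to agents for 7 days before the viability read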
# Condition Context: second compound 0.316 µM; first compound 3.16 µM; spheroids with HUVEC and MSC
Pick from active, inactive when you respond.

Observe how each entry below is paired with its result.
Molecule	Cat
C#Cc1c(F)ccc2cc(O)cc(-c3ncc4c(N5CC6CCC(C5)N6)nc(OCC56CCCN5CC(F)C6)nc4c3F)c12 (stereo not given) + CC(Nc1ccc2c(c1)OCCn1cc(N3C(=O)OCC3C(F)F)nc1-2)C(N)=O	inactive
CCCS(=O)(=O)Nc1ccc(F)c(C(=O)c2c[nH]c3ncc(-c4ccc(Cl)cc4)cc23)c1F + CC(Nc1ccc2c(c1)OCCn1cc(N3C(=O)OCC3C(F)F)nc1-2)C(N)=O	inactive
Cn1ncc(Cl)c1-c1cc(C(=O)NC(CN)Cc2cccc(F)c2)sc1Cl (stereo not given) + Cc1nc(NC(=O)N2CCCC2C(N)=O)sc1-c1ccnc(C(C)(C)C(F)(F)F)c1	active

# input Outcome logged for CNC(=O)c1ccc(N2C(=S)N(c3ccc(C#N)c(C(F)(F)F)c3)C(=O)C2(C)C)cc1F + CC(Nc1ccc2c(c1)OCCn1cc(N3C(=O)OCC3C(F)F)nc1-2)C(N)=O in this assay:
# output inactive

# input GET /call?item= CC(C)NCC(C(=O)N1CCN(c2ncnc3c2C(C)CC3O)CC1)c1ccc(Cl)cc1 (stereo not given) + CC(Nc1ncnc2nc[nH]c12)c1cc2cccc(Cl)c2c(=O)n1-c1ccccc1 returns the recorded outcome of this test.
# output inactive

###

A collection of compounds and their measured viability, T/C
# Tested on: 883617-216-R-J1-PDC tumor spheroids, viability
# Procedure Details: Anticancer human tumor 883617-216-R-J1-PDC cell line growth inhibition [PI3K];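 further: spheroids exposed to agents for 7 days before the viability read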
# Condition Context: second compound 10 µM; first compound 0.0316 µM; stronger effect = lower value; spheroids with HUVEC and MSC
Expressed in %, but write only the number.

Examples with their reported viability, T/C follow.
Compound	Readout Units	Reported
C[C@@H](NC(=O)c1ncnc(N)c1Cl)c1ncc(C(=O)Nc2cc(C(F)(F)F)c(Cl)cn2)s1 + Cc1nc(NC(=O)N2CCCC2C(N)=O)sc1-c1ccnc(C(C)(C)C(F)(F)F)c1	%	9.78
CC1(C)CCC(CN2CCN(c3ccc(C(=O)NS(=O)(=O)c4ccc(NCC5CCOCC5)c([N+](=O)[O-])c4)c(Oc4cnc5[nH]ccc5c4)c3)CC2)=C(c2ccc(Cl)cc2)C1 + CC(Nc1ncnc2nc[nH]c12)c1cc2cccc(Cl)c2c(=O)n1-c1ccccc1	%	49

Now take the following compound into account.
# input Return viability, T/C measured with 883617-216-R-J1-PDC tumor spheroids, viability given this compound: Cn1ncc(Cl)c1-c1cc(C(=O)NC(CN)Cc2cccc(F)c2)sc1Cl (stereo not drawn) + CC(Nc1ncnc2nc[nH]c12)c1cc2cccc(Cl)c2c(=O)n1-c1ccccc1
# output 50.3

###

# Test system: 883617-216-R-J1-PDC tumor spheroids, viability
# Procedure Details: Anticancer human tumor 883617-216-R-J1-PDC cell line growth inhibition [PI3K];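 further: spheroids exposed to agents for 7 days before the viability read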
# Condition Context: second compound 1 µM; first compound 1 µM; stronger effect = lower value; spheroids with HUVEC and MSC
Response field label: string, one of fulfilled (viability, T/C strictly below 30%) or not fulfilled.

Worked examples follow.
Molecule	Cat
CCCS(=O)(=O)Nc1ccc(F)c(C(=O)c2c[nH]c3ncc(-c4ccc(Cl)cc4)cc23)c1F + CC(Nc1ncnc2nc[nH]c12)c1cc2cccc(Cl)c2c(=O)n1-c1ccccc1	not fulfilled
Cn1ncc(Cl)c1-c1cc(C(=O)NC(CN)Cc2cccc(F)c2)sc1Cl (stereo unspecified) + CC(Nc1ncnc2nc[nH]c12)c1cc2cccc(Cl)c2c(=O)n1-c1ccccc1	not fulfilled
CNC(=O)c1ccc(N2C(=S)N(c3ccc(C#N)c(C(F)(F)F)c3)C(=O)C2(C)C)cc1F + CC(Nc1ccc2c(c1)OCCn1cc(N3C(=O)OCC3C(F)F)nc1-2)C(N)=O	fulfilled

# input # strict comparison: is reported viability, T/C < 30%? input = Cn1ncc(Cl)c1-c1cc(C(=O)NC(CN)Cc2cccc(F)c2)sc1Cl (stereo unspecified) + COc1c(OCCCN2CCOCC2)ccc2c3n(c(=NC(=O)c4cnc(N)nc4)nc12)CCN3
# output fulfilled

# input Hello, is viability, T/C of the following molecule strictly smaller than 30%? CC1(C)CCC(Nc2ncc(C(F)(F)F)c(-c3c[nH]c4c(P(C)(C)=O)c(C#N)ccc34)n2)CN1 (stereo unspecified) + COc1c(OCCCN2CCOCC2)ccc2c3n(c(=NC(=O)c4cnc(N)nc4)nc12)CCN3
# output fulfilled

# input Criterion: viability, T/C strictly below 30%. Is it met by CCCS(=O)(=O)Nc1ccc(F)c(C(=O)c2c[nH]c3ncc(-c4ccc(Cl)cc4)cc23)c1F + Cc1nc(NC(=O)N2CCCC2C(N)=O)sc1-c1ccnc(C(C)(C)C(F)(F)F)c1 ?
# output not fulfilled

###

Item-by-item account of viability, T/C
# System: 883617-216-R-J1-PDC tumor spheroids, viability
# Procedure Details: Anticancer human tumor 883617-216-R-J1-PDC cell line growth inhibition [PI3K];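 further: spheroids exposed to agents for 7 days before the viability read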
# Condition Context: second compound 0.0316 µM; first compound 0.316 µM; stronger effect = lower value; spheroids with HUVEC and MSC
Value expressed in %; do not type the unit.

Molecule	Target Of Assay	viability, T/C, %
CCN1CCN(Cc2ccc(Nc3ncc(F)c(-c4cc(F)c5nc(C)n(C(C)C)c5c4)n3)nc2)CC1 + Cc1nc(NC(=O)N2CCCC2C(N)=O)sc1-c1ccnc(C(C)(C)C(F)(F)F)c1	883617-216-R-J1-PDC tumor spheroids, viability	49.9
Cn1nccc1Nc1nccc(-c2ccn(C(CO)c3ccc(Cl)c(F)c3)c(=O)c2)n1 (stereo not drawn) + COc1c(OCCCN2CCOCC2)ccc2c3n(c(=NC(=O)c4cnc(N)nc4)nc12)CCN3	883617-216-R-J1-PDC tumor spheroids, viability	26.7
CC(Cn1ccc(-c2ccc(C#N)c(Cl)c2)n1)NC(=O)c1cc(C(C)O)[nH]n1 (stereo not drawn) + CC(Nc1ccc2c(c1)OCCn1cc(N3C(=O)OCC3C(F)F)nc1-2)C(N)=O	883617-216-R-J1-PDC tumor spheroids, viability	79.1
C#Cc1c(F)ccc2cc(O)cc(-c3ncc4c(N5CC6CCC(C5)N6)nc(OCC56CCCN5CC(F)C6)nc4c3F)c12 (stereo not drawn) + CC(Nc1ncnc2nc[nH]c12)c1cc2cccc(Cl)c2c(=O)n1-c1ccccc1	883617-216-R-J1-PDC tumor spheroids, viability	84.2
CC1(C)CCC(Nc2ncc(C(F)(F)F)c(-c3c[nH]c4c(P(C)(C)=O)c(C#N)ccc34)n2)CN1 (stereo not drawn) + CC(Nc1ccc2c(c1)OCCn1cc(N3C(=O)OCC3C(F)F)nc1-2)C(N)=O	883617-216-R-J1-PDC tumor spheroids, viability	21.8
CC(Cn1ccc(-c2ccc(C#N)c(Cl)c2)n1)NC(=O)c1cc(C(C)O)[nH]n1 (stereo not drawn) + CC(Nc1ncnc2nc[nH]c12)c1cc2cccc(Cl)c2c(=O)n1-c1ccccc1	883617-216-R-J1-PDC tumor spheroids, viability	90.5
Cn1ncc(Cl)c1-c1cc(C(=O)NC(CN)Cc2cccc(F)c2)sc1Cl (stereo not drawn) + Cc1nc(NC(=O)N2CCCC2C(N)=O)sc1-c1ccnc(C(C)(C)C(F)(F)F)c1	883617-216-R-J1-PDC tumor spheroids, viability	45.5
CC1(C)CCC(CN2CCN(c3ccc(C(=O)NS(=O)(=O)c4ccc(NCC5CCOCC5)c([N+](=O)[O-])c4)c(Oc4cnc5[nH]ccc5c4)c3)CC2)=C(c2ccc(Cl)cc2)C1 + CC(Nc1ncnc2nc[nH]c12)c1cc2cccc(Cl)c2c(=O)n1-c1ccccc1	883617-216-R-J1-PDC tumor spheroids, viability	93.8

Now turn to the next molecule.
# input State the recorded viability, T/C for this entry: CC1(C)CCC(Nc2ncc(C(F)(F)F)c(-c3c[nH]c4c(P(C)(C)=O)c(C#N)ccc34)n2)CN1 (stereo not drawn) + COc1c(OCCCN2CCOCC2)ccc2c3n(c(=NC(=O)c4cnc(N)nc4)nc12)CCN3
# output 24.7
